IC50 values for the compounds below.
Biological target: human type 1 glycine transporter (GlyT1) (Homo sapiens, UniProt P48067)
Construct: Glioma T98G cells endogenously expressing human type 1 glycine transporter (GlyT1) were used; endogenous in cells; host or cells: T98G human glioma cells
Experiment: Glycine uptake inhibition experiment ([3H]glycine uptake in T98G cells)
Type: cell-based
Settings: [3H]glycine 250 nM, 15 min, room temperature, read-out: glycine uptake inhibitory activity (IC50 value)
I only need the number, in nM, no unit after it.

[[record]]
compound = "CC(C)N(Cc1ccc(F)c(-c2ccc(OC(F)F)cc2)c1)C(=O)c1cn(C)cn1 [Compound 35]"
unit_abbreviation = "nM"
measured = 48.9

[[record]]
compound = "Cn1cnc(C(=O)N(Cc2ccc(F)c(-c3cccc(CO)c3)c2)C2CCCCC2)n1 [Compound 6]"
unit_abbreviation = "nM"
measured = 14.6

[[record]]
compound = "CC(C)N(Cc1ccc(F)c(-c2ccc(Cl)cc2)c1)C(=O)c1cn(C)cn1 [Compound 26]"
unit_abbreviation = "nM"
measured = 40

[[record]]
compound = "Cn1cnc(C(=O)N(Cc2ccc(F)c(-c3cccc(CO)c3)c2)C2CCCC2)c1 [Compound 14]"
unit_abbreviation = "nM"
measured = 2.78

[[record]]
compound = "COc1cccc(-c2cc(CN(C(=O)c3cn(C)cn3)C(C)C)ccc2F)c1 [Compound 24]"
unit_abbreviation = "nM"
measured = 14.2

[[record]]
compound = "CCC(CC)N(Cc1ccc(F)c(-c2cccc(CO)c2)c1)C(=O)c1cn(C)cn1 [Compound 11]"
unit_abbreviation = "nM"
measured = 35.1

[[record]]
compound = "COC(=O)c1cccc(-c2cc(CN(C(=O)c3ncn(C)n3)C3CCCCC3)ccc2F)c1 [Compound 2]"
unit_abbreviation = "nM"
measured = 12.6


Moving on to another compound below.
Bench note: what IC50 did CCn1cnc(C(=O)N(Cc2ccc(F)c(-c3ccc(OC(F)(F)F)cc3)c2)C(C)C)c1 [Compound 40] show?
35.9

---

Biological target: human type 1 glycine transporter (GlyT1) (Homo sapiens, UniProt P48067)
Construct: Glioma T98G cells endogenously expressing human type 1 glycine transporter (GlyT1) were used; endogenous in cells; host or cells: T98G human glioma cells
Assay: Glycine uptake inhibition experiment ([3H]glycine uptake in T98G cells)
Assay type: cell-based
Settings: [3H]glycine 250 nM, 15 min, room temperature, read-out: glycine uptake inhibitory activity (IC50 value)
measure-name: IC50 (nM)
Give the value, in units of nM, as a plain number.

Some molecules with known IC50 results, for comparison:
[[record]]
structure = "CCn1cnc(C(=O)N(Cc2ccc(F)c(-c3cc(F)c(F)c(F)c3)c2)C(C)C)c1"
measured = 48.3

[[record]]
structure = "CC(C)N(Cc1ccc(F)c(-c2cccc(OC(F)(F)F)c2)c1)C(=O)c1cn(C)cn1"
measured = 21.4

[[record]]
structure = "Cn1cnc(C(=O)N(Cc2ccc(F)c(-c3ccc(F)c(F)c3)c2)C2CCCC2)c1"
measured = 21


Now for another entry.
Any idea what IC50 was measured for CC(C)N(Cc1ccc(F)c(-c2cccc(F)c2)c1)C(=O)c1cn(C)cn1 ?
7.19

---

Target: human type 1 glycine transporter (GlyT1) (Homo sapiens)
Construct: Glioma T98G cells endogenously expressing human type 1 glycine transporter (GlyT1) were used; endogenous in cells; host or cells: T98G human glioma cells
Assay: Glycine uptake inhibition experiment ([3H]glycine uptake in T98G cells)
Type: cell-based
Conditions: [3H]glycine 250 nM, 15 min, room temperature, read-out: glycine uptake inhibitory activity (IC50 value), bounds
measure-name: IC50

Worked cases, answers included:
[[record]]
structure = "Cc1ccc(CN(C(=O)c2cn(C)cn2)C(C)C)cc1-c1ccc(F)cc1"
test_target = "human type 1 glycine transporter (GlyT1) (Homo sapiens)"
measured = "> 1000 nM"

[[record]]
structure = "Cc1ccc(CN(C(=O)c2cn(C)cn2)C(C)C)cc1-c1ccc(OC(F)(F)F)cc1"
test_target = "human type 1 glycine transporter (GlyT1) (Homo sapiens)"
measured = "> 1000 nM"

[[record]]
structure = "CC(C)N(Cc1ccc(F)c(-c2ccc(C#N)cc2F)c1)C(=O)c1cn(C)cn1"
test_target = "human type 1 glycine transporter (GlyT1) (Homo sapiens)"
measured = "≥ 100 nM"

[[record]]
structure = "CC(C)N(Cc1ccc(F)c(-c2cccc(CO)c2)c1)C(=O)c1ncn(C)n1"
test_target = "human type 1 glycine transporter (GlyT1) (Homo sapiens)"
measured = "≥ 100 nM"

[[record]]
structure = "CC(C)N(Cc1cc(-c2ccc(OC(F)(F)F)cc2)cc(C(F)(F)F)c1)C(=O)c1cn(C)cn1"
test_target = "human type 1 glycine transporter (GlyT1) (Homo sapiens)"
measured = "> 1000 nM"


IC50 of CC(C)N(Cc1ccc(F)c(-c2ccc(OC(F)(F)F)cc2)c1)C(=O)c1c[nH]cn1 on human type 1 glycine transporter (GlyT1) (Homo sapiens)?
> 1000 nM

Query the reported IC50 for human type 1 glycine transporter (GlyT1) (Homo sapiens); item: CC(C)N(Cc1ccc(F)c(-c2cccc(OC(F)(F)F)c2)c1)C(=O)c1ncn(C)n1
≥ 100 nM

Identify the measured IC50 of C=C(C)N(Cc1ccc(F)c(-c2ccc(OC(F)(F)F)cc2)c1)C(=O)c1cn(C)cn1 for human type 1 glycine transporter (GlyT1) (Homo sapiens).
≥ 100 nM
